Overview of reported Relative Activity (normalised to 2419) across a group of binders:
- measured on: T1, HA-GCN4 hAPRIL (amino acid residues 105-250) (human, UniProt O75888 105-250)
- T1 construct: Bought (R&D Systems); also called HA-tagged GCN4 human APRIL; HA-GCN4-huAPRIL; not shown: N-terminal HA tag; GCN4 isoleucine zipper oligomerization domain
- T1 sequence: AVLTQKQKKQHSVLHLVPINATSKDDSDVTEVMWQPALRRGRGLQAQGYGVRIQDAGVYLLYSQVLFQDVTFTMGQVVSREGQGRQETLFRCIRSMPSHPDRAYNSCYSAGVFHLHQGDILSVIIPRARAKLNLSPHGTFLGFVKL
- test summary: blocking ELISA; blocked: human APRIL binding to BCMA-Fc
Please state the value as a number alone, without comment.

Example results:
Return Relative Activity (normalised to 2419) for the following binder: monoclonal antibody 4035-062 (antibody, IgG1, V domains shown) VH: QVQLQESGPGLVKPSETLSLTCTVSGFSLTIYDVHWVRQPPGKGLEWIGVIWSDGSTDYNPSLKSRVTISKDTSKNQVSLKLSSVTAADTAVYYCARNWVDQAWFAYWGQGTLVTVSS VL: DIQMTQSPSSLSASVGDRVTITCRASKNIYSYLAWYQQKPGKAPKLLVYNAKTLPEGVPSRFSGSGSGTDFTLTISSLQPEDFATYYCQHHYGTPLTFGQGTKLEIK 0.41

Tell me measured Relative Activity (normalised to 2419) for monoclonal antibody 4540-063 (antibody, IgG1, V domains shown) VH: QVQLVQSGAELKKPGASVKVSCKASGYTFADYYMNWVRQAPGQGLEWMGWIFPGSGSTYYNQKFQGRVTMTVDKSSSTAYMELSRLRSDDTAVYYCARGDSGRAMDYWGQGTLVTVSS VL: DIQMTQSPSSLSASVGDRVTITCQASQDINKYLAWYQHKPGKAPKLLIHYTSTLETGVPSRFSGSGSGTDFTFTISSLQPEDIATYYCLQYDNLLTFGGGTKVEIK please. 8.11

Hello, please tell me recorded Relative Activity (normalised to 2419) for this one: 2419-1310 (antibody, V domains shown) VH: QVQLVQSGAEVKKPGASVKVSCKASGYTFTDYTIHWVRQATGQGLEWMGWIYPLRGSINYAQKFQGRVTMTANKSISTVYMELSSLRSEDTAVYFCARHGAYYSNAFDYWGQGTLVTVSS VL: DIVMTQSPDSLAVSLGERATINCKSSQSVDNDGIRFLHWYQQKPGQPPKLLIYRASTRESGVPDRFSGSGSGTDFTLTISSLQAEDVAVYYCQQSNKDPYTFGGGTKVEIK 1.14

Further cases:
Tell me Relative Activity (normalised to 2419) reported for monoclonal antibody 2419-1406 (antibody, V domains shown) VH: QVQLVQSGAEVKKPGASVKVSCKASGYTFTDYTIHWVRQATGQGLEWMGWIYPLRGSINYAQKFQGRVTMTADKSISTVYMELSSLRSEDTAVYFCARHGAYYSNAFDYWGQGTLVTVSS VL: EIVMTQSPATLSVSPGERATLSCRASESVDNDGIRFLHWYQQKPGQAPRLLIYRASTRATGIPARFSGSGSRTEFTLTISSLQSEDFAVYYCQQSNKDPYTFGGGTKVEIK 0.47

Identify Relative Activity (normalised to 2419) associated with the binder 4540-033 (antibody, V domains shown) VH: QVQLVQSGAEVKKPGASVKVSCKASGYTFADYYINWVRQAPGQGLEWMGWIFPGSGSTYYAQKLQGRVTMTTDTSTSTAYMELRSLRSDDTAVYYCARGDSGRAMDYWGQGTLVTVSS VL: DIQMTQSPSSLSASVGDRVTITCQASQDINKYLAWYQHKPGKAPKLLIHYTSTLETGVPSRFSGSGSGTDFTFTISSLQPEDIATYYCLQYDNLLTFGGGTKVEIK 15.6

Quote Relative Activity (normalised to 2419) reported for monoclonal antibody 2419-0205 (antibody, IgG2, V domains shown) VH: QVQLVQSGAEVKKPGSSVKVSCKASGYTFTDYTIHWVRQAPGQGLEWMGWIYPLRGSINYAQKFQGRVTITADKSTSTAYMELSSLRSEDTAVYFCARHGAYYSNAFDYWGQGTLVTVSS VL: EIVMTQSPATLSVSPGERATLSCRASESVDNDGIRFLHWYQQKPGQAPRLLIYRASNRETGIPARFSGSGSGTEFTLTISSLQSEDFAVYYCQQSNKDPYTFGGGTKVEIK please. 0.71

FYI, the data here is from patent US20170145086A1.
